Target: HCV NS3 protease (full length NS34a) (Hepatitis C virus genotype 1b)
Construct: The protease activity of the full length NS34a was measured using a FRET-based assay; made in house
Test: HCV NS3 protease assay (FRET, full length NS34a)
Format: biochemical
Settings: protease activity of full length NS34a, FRET peptide substrate; read-out: Activity IC50
Counter-ions that a name gives are not always drawn.
Please go through the items and note down their IC50.
One number for each entry, in nM.

Consider the following illustrative entries.
| molecule | unit annotation | IC50 |
| --- | --- | --- |
| CC[C@@H](N[C@@H](C)CC(N)=O)c1ccc(Cl)c(Oc2ccc(C#N)cc2)c1F [Example 186] | nM | 39 |
| CC[C@@H](N[C@H](C)CC(=O)NCCO)c1ccc(Cl)c(Oc2ccccc2)c1F [Example 146] | nM | 3100 |
| CC[C@@H](N[C@H](C)CC(N)=O)c1ccc(Cl)c(Oc2ccc3c(c2)OCC3)c1F [Example 232] | nM | 1800 |
| N[C@H]1CC[C@H](NCc2ccc(Cl)c(Oc3ccccc3)c2F)CC1 [Example 271, dihydrochloride] | nM | 260 |
| CC[C@H](N[C@@H](C)CO)c1ccc(F)c(Oc2ccccc2)c1F [Example 64] | nM | 430 |
| CC[C@@H](N)c1ccc(Cl)c(Oc2ccc(C(C)OC)cc2)c1F (some centres unmarked) [Example 184] | nM | 6100 |
| CS(=O)(=O)Nc1cccc(Oc2c(F)ccc(CNc3ccnc(N)c3)c2F)c1 [Example 286] | nM | 3000 |

Proceed to the following item.
**Q:** For the molecule CC[C@@H](N[C@@H](C)CC(=O)NC1CCNCC1)c1ccc(Cl)c(Oc2ccccc2)c1F [Example 264] , report IC50.
**A:** 4600

---

Biological target: HCV NS3 protease (full length NS34a) (Hepatitis C virus genotype 1b, UniProt P26663)
Construct: The protease activity of the full length NS34a was measured using a FRET-based assay; made in house
Sequence (P26663 1658-1711): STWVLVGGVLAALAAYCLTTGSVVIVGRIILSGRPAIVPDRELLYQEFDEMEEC
Sequence (P26663 1027-1657): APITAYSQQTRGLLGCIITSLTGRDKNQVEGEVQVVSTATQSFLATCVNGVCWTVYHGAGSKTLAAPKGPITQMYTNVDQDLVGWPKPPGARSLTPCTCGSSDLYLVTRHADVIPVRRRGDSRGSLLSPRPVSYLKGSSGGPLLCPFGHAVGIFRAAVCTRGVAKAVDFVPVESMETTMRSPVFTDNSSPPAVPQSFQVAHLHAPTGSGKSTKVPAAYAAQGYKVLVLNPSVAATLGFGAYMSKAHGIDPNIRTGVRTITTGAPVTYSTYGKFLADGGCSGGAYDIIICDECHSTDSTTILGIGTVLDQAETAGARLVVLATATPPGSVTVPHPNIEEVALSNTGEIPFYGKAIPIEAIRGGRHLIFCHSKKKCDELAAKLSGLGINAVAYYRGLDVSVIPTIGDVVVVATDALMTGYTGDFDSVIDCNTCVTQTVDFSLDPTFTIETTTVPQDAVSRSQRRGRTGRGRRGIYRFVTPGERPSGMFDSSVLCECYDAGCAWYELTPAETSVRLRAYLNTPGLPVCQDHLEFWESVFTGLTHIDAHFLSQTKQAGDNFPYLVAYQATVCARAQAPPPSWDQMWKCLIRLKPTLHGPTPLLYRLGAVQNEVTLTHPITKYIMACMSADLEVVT
Assay: HCV NS3 protease assay (FRET, full length NS34a)
Type: biochemical
Settings: protease activity of full length NS34a, FRET peptide substrate; read-out: Activity IC50
Please go through the items and note down their pIC50.
One number for each entry, as −log10 of the molar value.

Consider the following illustrative entries.
| compound | pIC50 |
| --- | --- |
| CC[C@@H](N)c1ccc(Cl)c(Oc2cccc(F)c2)c1F | 5.52 |
| CC[C@@H](N[C@@H](C)CC(N)=O)c1ccc(Cl)c(Oc2ccc3c(c2)C(C)(C)CN3)c1F | 6.57 |

# batch: return pIC50 for each of the 5 compounds below
1. CCC(NCC1CC1)c1ccc(F)c(Oc2ccccc2)c1F (centres unmarked)
2. CC[C@@H](N)c1ccc(Cl)c(Oc2cccc(C(F)(F)F)c2)c1F
3. CC[C@@H](N)c1ccc(Cl)c(Oc2ccc(C(C)O)cc2)c1F (some centres unmarked)
4. C[C@H](CO)N[C@@H](CC1CCNCC1)c1ccc(F)c(Oc2ccccc2)c1F [Example 95B]
5. CCC(NCC(C)O)c1ccc(F)c(Oc2ccccc2)c1F (mixture of isomers)

**A:**
1. 5.49
2. 5.17
3. 5.57
4. 6.39
5. 5.30

# batch: return pIC50 for each of the 4 compounds below
1. C[C@@H](CC(=O)NCCN)N[C@H](CC1CCOCC1)c1ccc(Cl)c(Oc2ccccc2)c1F
2. CC[C@@H](N)c1ccc(Cl)c(Oc2ccc(C#N)c(C)c2)c1F
3. CC[C@@H](N[C@@H](C)CC(N)=O)c1ccc(F)c(Oc2ccccc2)c1F
4. CC(C)CC(N)c1ccc(F)c(Oc2ccccc2)c1F (centres unmarked)

**A:**
6.96
6.37
6.68
5.66
